- system-tested: Recombinant human his-tagged IGF R extracellular domain protein (human) (UniProt P08069)
- assay-name: SPR, Ab captured via anti-huIgG Fc, dissociation at pH 6
Each item that follows carries a reported koff.
Answer in s⁻¹, number only, no unit symbol.

* VRDN-02074 (antibody, V domains shown) VH: QVQLQESGPGLVKPSETLSLTCTVSGYSITGGYLWNWIRQPPGKGLEWIGYISYHGTNNYKPSLKDRVTISRDTSKNQFSLKLSSVTAADTAVYYCARHGRVFFDYWGQGTLVTVSS VL: DIVMTQSPLSLPVTPGEPASISCRSHQSIVHSNGNTYLQWYLQKPGQSPQLLIYKVSNRLYGVPDRFSGSGSGTDFTLKISRVEAEDVGVYYCFHGSHVPWTFGQGTKVEIK | 5.81e-05

Let's switch to this binder now.
# get_value(readout='koff', item= VRDN-02025 (antibody, V domains shown) VH: QVQLQESGPGLVKPSETLSLTCTVSGYSITGGYLWNWIRQPPGKGLEWIGYISYDGTNNYKPSLKDRVTISRDTSKNQFSLKLSSVTAADTAVYYCARYGRVHFDYWGQGTLVTVSS VL: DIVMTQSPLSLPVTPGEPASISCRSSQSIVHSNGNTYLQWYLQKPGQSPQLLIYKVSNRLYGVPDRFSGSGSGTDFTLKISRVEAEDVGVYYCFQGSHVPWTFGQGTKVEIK )
9.5e-05
